Recorded values, source patent US20070078092A1.

The entries below come with measured IC50, in vitro PKB inhibition values attached.
# MEASURED ON: protein kinase B (PKB)
# PROTOCOL NOTES: cell-based or functional assay
Square brackets hold non-standard residues; d marks the D form. Ends that are not written are not given here. hLeu = CC(C)CC[C@H](N)C(=O)O; Nva = CCC[C@H](N)C(=O)O; Dap = NC[C@H](N)C(=O)O
OBSERVED PROPERTY: IC50, in vitro PKB inhibition (nM)

{"BINDER": "[dK][dK][dK][dK][dK][dK][dK][dK]RPR[Nva]Y[Dap][hLeu]-NH2 (N-terminus assumed; SMILES CCC[C@H](NC(=O)[C@H](CCCNC(=N)N)NC(=O)[C@@H]1CCCN1C(=O)[C@H](CCCNC(=N)N)NC(=O)[C@@H](CCCCN)NC(=O)[C@@H](CCCCN)NC(=O)[C@@H](CCCCN)NC(=O)[C@@H](CCCCN)NC(=O)[C@@H](CCCCN)NC(=O)[C@@H](CCCCN)NC(=O)[C@@H](CCCCN)NC(=O)[C@H](N)CCCCN)C(=O)N[C@@H](Cc1ccc(O)cc1)C(=O)N[C@@H](CN)C(=O)N[C@@H](CCC(C)C)C(N)=O) [MPS ab60025-82]", "OBSERVED PROPERTY": "IC50, in vitro PKB inhibition", "TEST RESULT": 400}
{"BINDER": "RQIKIWFQNRRMKWKKRPRXYAX (Nva, Hol of the 6184 part) [MPS ab60025-4]", "OBSERVED PROPERTY": "IC50, in vitro PKB inhibition", "TEST RESULT": 200}
{"BINDER": "RQIKIWFQNRRMKWKKRPRXYXX (Nva, Dap, Hol of the 6154 part) [MPS ab60025-2]", "OBSERVED PROPERTY": "IC50, in vitro PKB inhibition", "TEST RESULT": 1000}
{"BINDER": "[dR][dR][dR][dR][dR][dR][dR]RPR[Nva]Y[Dap][hLeu]-NH2 (N-terminus assumed; SMILES CCC[C@H](NC(=O)[C@H](CCCNC(=N)N)NC(=O)[C@@H]1CCCN1C(=O)[C@H](CCCNC(=N)N)NC(=O)[C@@H](CCCNC(=N)N)NC(=O)[C@@H](CCCNC(=N)N)NC(=O)[C@@H](CCCNC(=N)N)NC(=O)[C@@H](CCCNC(=N)N)NC(=O)[C@@H](CCCNC(=N)N)NC(=O)[C@@H](CCCNC(=N)N)NC(=O)[C@H](N)CCCNC(=N)N)C(=O)N[C@@H](Cc1ccc(O)cc1)C(=O)N[C@@H](CN)C(=O)N[C@@H](CCC(C)C)C(N)=O) [MPS ab60025-94]", "OBSERVED PROPERTY": "IC50, in vitro PKB inhibition", "TEST RESULT": 400}
